# Test system: NCI-H2170
# measurement-description: relative viability (nuclei count vs DMSO), 5 days (fraction); higher = more cells survive
# condition-description: first compound 0.2 µM
In this section we review reported relative viability values for a set of compounds.
measured-parameter: relative viability

| compound | measured-parameter | numeric-readout |
| --- | --- | --- |
| COCC1(CO)C(=O)C2CCN1CC2 (stereo not drawn) [PRIMA-1MET] + CC(=O)Nc1cccc(-n2c(=O)n(C3CC3)c(=O)c3c(Nc4ccc(I)cc4F)n(C)c(=O)c(C)c32)c1 [Trametinib] (partner 0.02 µM) | relative viability | 0.914 |
| COCC1(CO)C(=O)C2CCN1CC2 (stereo not drawn) [PRIMA-1MET] + CS(=O)(=O)N1CCN(Cc2cc3nc(-c4cccc5[nH]ncc45)nc(N4CCOCC4)c3s2)CC1 [Pictilisib] (partner 1 µM) | relative viability | 0.312 |
| COCC1(CO)C(=O)C2CCN1CC2 (stereo not drawn) [PRIMA-1MET] + Nc1ncn([C@H]2C[C@H](O)[C@@H](CO)O2)c(=O)n1 [Decitabine] (partner 2 µM) | relative viability | 0.42 |
| COCC1(CO)C(=O)C2CCN1CC2 (stereo not drawn) [PRIMA-1MET] + Nc1nc2[nH]cc(CCc3ccc(C(=O)N[C@@H](CCC(=O)O)C(=O)O)cc3)c2c(=O)[nH]1 [Pemetrexed] (partner 0.2 µM) | relative viability | 0.271 |
| COCC1(CO)C(=O)C2CCN1CC2 (stereo not drawn) [PRIMA-1MET] + CC(=O)c1c(C)c2cnc(Nc3ccc(N4CCNCC4)cn3)nc2n(C2CCCC2)c1=O [Palbociclib] (partner 0.5 µM) | relative viability | 0.422 |
| COCC1(CO)C(=O)C2CCN1CC2 (stereo not drawn) [PRIMA-1MET] + O=C(CCCCCCC(=O)Nc1ccccc1)NO [Vorinostat] (partner 1 µM) | relative viability | 1.05 |
| COCC1(CO)C(=O)C2CCN1CC2 (stereo not drawn) [PRIMA-1MET] + C[C@@H](Oc1cc(-c2cnn(C3CCNCC3)c2)cnc1N)c1c(Cl)ccc(F)c1Cl [Crizotinib] (partner 1 µM) | relative viability | 1.38 |
| COCC1(CO)C(=O)C2CCN1CC2 (stereo not drawn) [PRIMA-1MET] + CCNC(=O)c1noc(-c2cc(C(C)C)c(O)cc2O)c1-c1ccc(CN2CCOCC2)cc1 [Luminespib] (partner 0.01 µM) | relative viability | 1.06 |
